# EXPERIMENTAL TARGET: Muscarinic acetylcholine receptor (Rattus norvegicus) (UniProt P08482+P08483+P08485+P08911+P10980)
# TEST METHOD NOTES: Relative affinities compared to oxotremorine-M (OXO-M) and [3H]quinuclidinyl benzilate (QNB) for muscarinic receptors
# Format: protein assay
QUANTITY: Ratio

Take a look at these entries with their results.
# COMPOUND, Ratio
rows = [
    ("CO/N=C(\\Br)C12CCCN(CC1)C2 (stereo unspecified)", 12),
    ("CO/N=C(\\Cl)C12CCCN(CC1)C2 (stereo unspecified)", 42),
    ("CO/N=C(\\Cl)C1CN2CCC1CC2 (stereo unspecified)", 16),
    ("CO/N=C(\\F)C1CN2CCC1CC2 (stereo unspecified)", 65),
    ("CO/N=C(\\F)C12CCCN(CC1)C2 (stereo unspecified)", 56),
]

Moving on to another compound below.
Reported Ratio of CO/N=C(\Cl)C12CCN(CC1)C2 : 167

###

# TEST METHOD NOTES: LogD value represents the distribution coefficient at pH 7.3.
# Type: physicochemical
# CONDITION DETAILS: octanol/water
QUANTITY: logD
The answer should be written as a number, with no unit following it.

# COMPOUND, logD
rows = [
    ("CO/N=C(\\C#N)C12CCCN(CC1)C2 (stereo unspecified)", -0.18),
    ("CO/N=C(\\Cl)C12CCCN(CC1)C2 (stereo unspecified)", 0.18),
    ("CO/N=C(\\C)C12CCCN(CC1)C2 (stereo unspecified)", -1.13),
    ("CO/N=C(\\C#N)C1CN2CCC1CC2 (stereo unspecified)", -0.11),
    ("CO/N=C(\\C)C1CN2CCC1CC2 (stereo unspecified)", -1.09),
]

What the record says about CO/N=C(\F)C12CCCN(CC1)C2 (stereo unspecified) : logD is -0.76

###

# TEST METHOD NOTES: Compound was evaluated for its dissociation constant.
# Format: ADME
QUANTITY: pKa
Write the value as a bare number.

# COMPOUND, pKa
records = [
    ("CO/N=C(\\Cl)C12CCCN(CC1)C2 (stereo unspecified)", 9.24),
]

Looking up CO/N=C(\C)C1CN2CCC1CC2 (stereo unspecified) , I see its pKa listed as 10.3

Lab book: pKa of CO/N=C(\F)C12CCCN(CC1)C2 (stereo unspecified) noted as 9.06

Record CO/N=C(\C#N)C12CCCN(CC1)C2 (stereo unspecified) . Reported pKa: 8.96

Looking up CO/N=C(\C)C12CCCN(CC1)C2 (stereo unspecified) , I see its pKa listed as 10.1

Lab note: CO/N=C(\C#N)C1CN2CCC1CC2 (stereo unspecified) gave pKa of 8.96

###

# EXPERIMENTAL TARGET: Muscarinic acetylcholine receptor (Rattus norvegicus) (UniProt P08482+P08483+P08485+P08911+P10980)
# TEST METHOD NOTES: Relative affinities compared to oxotremorine-M (OXO-M) and [3H]quinuclidinyl benzilate (QNB) for muscarinic receptors
# Format: protein assay
# Ratio >= 100 gives 1, anything below gives -1

The following molecules have reported results that may help.
# MOLECULE, CATEGORY
data = [
    ("CO/N=C(\\Br)C12CCN(CC1)C2", -1),
    ("CO/N=C(\\Cl)[C@H]1CN2CC[C@H]1C2", -1),
    ("CO/N=C(\\F)[C@H]1CN2CC[C@H]1C2", 1),
]

Query: // inclusive: Ratio at least 100? input: CO/N=C(\C#N)C1CN2CCC1CC2 (configuration not stated)
Reply: -1

Query: Given CO/N=C(\Br)[C@H]1CN2CC[C@H]1C2 , state whether its Ratio is at least 100.
Reply: -1

Query: Could you verify whether the entry CO/N=C(\F)C12CCN(CC1)C2 shows Ratio of no less than 100?
Reply: 1

These entries and their values trace back to ChEMBL document CHEMBL1126441.
